# Target system: ATP-dependent translocase ABCB1 (Homo sapiens)
# Sequence (P08183 whole entry): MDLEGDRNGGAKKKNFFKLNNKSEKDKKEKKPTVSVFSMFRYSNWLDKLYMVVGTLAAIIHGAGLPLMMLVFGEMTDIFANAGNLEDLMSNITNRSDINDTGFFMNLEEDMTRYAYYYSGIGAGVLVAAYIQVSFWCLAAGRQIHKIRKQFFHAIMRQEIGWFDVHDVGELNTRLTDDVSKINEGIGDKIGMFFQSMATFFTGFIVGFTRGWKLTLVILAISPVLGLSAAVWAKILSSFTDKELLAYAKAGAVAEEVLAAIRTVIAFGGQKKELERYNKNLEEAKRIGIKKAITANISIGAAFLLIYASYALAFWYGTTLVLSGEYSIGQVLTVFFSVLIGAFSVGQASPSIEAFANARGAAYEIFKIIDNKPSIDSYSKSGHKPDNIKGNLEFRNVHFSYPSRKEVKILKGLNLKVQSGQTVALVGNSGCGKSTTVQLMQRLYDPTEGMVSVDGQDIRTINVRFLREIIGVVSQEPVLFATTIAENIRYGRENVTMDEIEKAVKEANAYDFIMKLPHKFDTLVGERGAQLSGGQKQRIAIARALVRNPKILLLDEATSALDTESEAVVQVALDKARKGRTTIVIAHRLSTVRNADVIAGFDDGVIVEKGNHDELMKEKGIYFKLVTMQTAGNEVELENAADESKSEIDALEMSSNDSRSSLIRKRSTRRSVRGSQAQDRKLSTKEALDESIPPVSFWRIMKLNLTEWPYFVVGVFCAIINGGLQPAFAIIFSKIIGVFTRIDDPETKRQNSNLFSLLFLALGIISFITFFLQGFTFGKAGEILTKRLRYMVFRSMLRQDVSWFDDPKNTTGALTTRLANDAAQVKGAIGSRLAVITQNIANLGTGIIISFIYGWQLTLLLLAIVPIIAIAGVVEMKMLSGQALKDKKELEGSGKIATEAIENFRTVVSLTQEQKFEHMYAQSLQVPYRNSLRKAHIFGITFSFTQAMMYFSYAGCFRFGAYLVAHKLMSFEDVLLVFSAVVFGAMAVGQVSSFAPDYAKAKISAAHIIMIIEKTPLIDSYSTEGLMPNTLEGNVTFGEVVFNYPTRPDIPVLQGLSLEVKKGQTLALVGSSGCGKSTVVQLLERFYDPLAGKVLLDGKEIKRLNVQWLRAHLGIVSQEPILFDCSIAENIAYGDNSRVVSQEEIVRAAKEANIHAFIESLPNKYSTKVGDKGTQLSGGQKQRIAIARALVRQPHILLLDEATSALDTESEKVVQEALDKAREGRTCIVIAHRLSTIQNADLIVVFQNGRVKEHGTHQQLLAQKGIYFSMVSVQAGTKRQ
# Assay: Inhibition of P-gp mediated efflux in adriamycin-resistant human HepG2 cells assessed as intracellular rhodamine-123 accumulation at 10 uM incubated in dark condition for 90 mins by flow cytometry relative to control
# Assay type: cell-based
Observation type: INH

Some molecules with known INH results, for comparison:
[[record]]
molecule = "CC(=O)O[C@@H]1C[C@@H](OC(=O)c2ccccc2)/C(C)=C/[C@H]2[C@@H](OC(=O)c3ccccc3)[C@@H](C)[C@H](OC(=O)c3ccc(Br)cc3)[C@]2(OC(C)=O)[C@H](O)[C@](C)(O)/C=C/C1(C)C"
reported_measurement = "Active"

[[record]]
molecule = "CC(=O)O[C@@H]1C[C@@H](O)/C(C)=C/[C@H]2[C@@H](OC(=O)c3ccccc3)[C@@H](C)[C@H](O)[C@]2(OC(C)=O)[C@H](OC(=O)c2ccccc2)[C@](C)(O)/C=C/C1(C)C"
reported_measurement = "Active"

[[record]]
molecule = "CC(=O)O[C@@H]1[C@@H](OC(C)=O)C(=O)/C(C)=C/[C@H]2[C@@H](OC(=O)c3ccccc3)[C@@H](C)[C@H](OC(C)=O)[C@]2(OC(C)=O)[C@H](OC(C)=O)[C@]2(C)O[C@H]2CC1(C)C"
reported_measurement = "Active"

[[record]]
molecule = "CC(=O)O[C@@H]1C[C@@H](OC(=O)c2ccccc2)/C(C)=C/[C@H]2[C@@H](OC(=O)c3ccccc3)[C@@H](C)[C@H](OC(=O)c3ccco3)[C@]2(OC(C)=O)[C@H](O)[C@](C)(O)/C=C/C1(C)C"
reported_measurement = "Active"

[[record]]
molecule = "CC(=O)O[C@@H]1C[C@@H](OC(=O)c2ccccc2)/C(C)=C/[C@H]2[C@@H](OC(=O)c3ccccc3)[C@@H](C)[C@H](O)[C@]2(OC(C)=O)[C@H](O)[C@](C)(O)/C=C/C1(C)C"
reported_measurement = "Active"

[[record]]
molecule = "CC(=O)O[C@@H]1C[C@@H](OC(=O)c2ccccc2)/C(C)=C/[C@H]2[C@@H](OC(=O)c3ccccc3)[C@@H](C)[C@H](OC(C)=O)[C@]2(OC(C)=O)[C@H](O)[C@](C)(O)/C=C/C1(C)C"
reported_measurement = "Active"


Query block: GET INH | system: ATP-dependent translocase ABCB1 (Homo sapiens) | item: CC(=O)O/C1=C(\C)[C@@H](O)[C@H]2[C@@H](OC(=O)c3ccccc3)[C@@H](C)[C@H](OC(=O)c3ccccc3)[C@]2(OC(C)=O)[C@H](OC(C)=O)/C(C)=C/CC(C)(C)[C@H](OC(C)=O)[C@H]1OC(C)=O
Result block: Active

Query block: Fill in: INH on ATP-dependent translocase ABCB1 (Homo sapiens), entry CC(=O)O[C@@H]1[C@@H](OC(C)=O)C(C)(C)C/C=C(\C)[C@@H](OC(C)=O)[C@]2(OC(C)=O)[C@@H](/C=C(\C)[C@@H]1OC(C)=O)[C@@H](OC(=O)c1ccccc1)[C@@H](C)[C@@H]2OC(C)=O
Result block: Active

###

# Target system: ATP-dependent translocase ABCB1 (Homo sapiens)
# Assay: Inhibition of P-gp mediated efflux in adriamycin-resistant human HepG2 cells assessed as intracellular rhodamine-123 accumulation at 0.125 uM incubated in dark condition for 90 mins by flow cytometry relative to control
# Type: cell-based
Observation type: FC

Worked examples, 2 molecules total:
[[record]]
molecule = "CC(=O)O[C@@H]1C[C@@H](OC(=O)c2ccccc2)/C(C)=C/[C@H]2[C@@H](OC(=O)c3ccccc3)[C@@H](C)[C@H](O)[C@]2(OC(C)=O)[C@H](O)[C@](C)(O)/C=C/C1(C)C"
target_system = "ATP-dependent translocase ABCB1 (Homo sapiens)"
observation_type = "FC"
reported_measurement = 1.32

[[record]]
molecule = "COc1cc2c(cc1OC)CN(CCc1ccc(NC(=O)c3cc(OC)c(OC)cc3NC(=O)c3cnc4ccccc4c3)cc1)CC2"
target_system = "ATP-dependent translocase ABCB1 (Homo sapiens)"
observation_type = "FC"
reported_measurement = 1.04


Query block: Input CC(=O)O/C1=C(\C)[C@@H](O)[C@H]2[C@@H](OC(=O)c3ccccc3)[C@@H](C)[C@H](OC(=O)c3ccccc3)[C@]2(OC(C)=O)[C@H](OC(C)=O)/C(C)=C/CC(C)(C)[C@H](OC(C)=O)[C@H]1OC(C)=O , output reported FC.
Result block: 1.37
